Entry source: PubChem BioAssay AID2060912

- Test system: HUVEC/MSC spheroids viability
- Assay Notes: Human HUVEC/MSC cell line growth inhibition [KRAS2];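 also: percent of DMSO vehicle control luminescence so 100% = untreated viability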
- Condition Description: second compound 0.0316 µM; first compound 0.000316 µM; stronger effect = lower value

| Compound | Experimental Target | viability, T/C |
| --- | --- | --- |
| CC(C)n1nc(-c2ccc3oc(N)nc3c2)c2c(N)ncnc21 + CNCc1ccccc1-c1csc(C(C)Nc2nc(C)nc3cc(OC)c(OC)cc23)c1 | HUVEC/MSC spheroids viability | 85.2% |
| Cn1ncnc1[C@H]1c2n[nH]c(=O)c3cc(F)cc(c23)N[C@@H]1c1ccc(F)cc1 + CNCc1ccccc1-c1csc(C(C)Nc2nc(C)nc3cc(OC)c(OC)cc23)c1 | HUVEC/MSC spheroids viability | 97.8% |
| Cn1ncnc1[C@H]1c2n[nH]c(=O)c3cc(F)cc(c23)N[C@@H]1c1ccc(F)cc1 + C=CC(=O)N1CCN(c2nc(=O)n(-c3c(C)ccnc3C(C)C)c3nc(-c4c(O)cccc4F)c(F)cc23)C(C)C1 | HUVEC/MSC spheroids viability | 101% |
| CN(C)C/C=C/C(=O)Nc1cc2c(Nc3ccc(F)c(Cl)c3)ncnc2cc1O[C@H]1CCOC1 + C=CC(=O)N1CCN(c2nc(=O)n(-c3c(C)ccnc3C(C)C)c3nc(-c4c(O)cccc4F)c(F)cc23)C(C)C1 | HUVEC/MSC spheroids viability | 98.4% |
| CC(C)n1nc(-c2ccc3oc(N)nc3c2)c2c(N)ncnc21 + C=CC(=O)N1CCN(c2nc(=O)n(-c3c(C)ccnc3C(C)C)c3nc(-c4c(O)cccc4F)c(F)cc23)C(C)C1 | HUVEC/MSC spheroids viability | 88.3% |
| CC(C)n1nc(-c2ccc3oc(N)nc3c2)c2c(N)ncnc21 + CC1OCC2(CCN(c3cnc(Sc4ccnc(N)c4Cl)c(N)n3)CC2)C1N | HUVEC/MSC spheroids viability | 108% |
| CN(C)C/C=C/C(=O)Nc1cc2c(Nc3ccc(F)c(Cl)c3)ncnc2cc1O[C@H]1CCOC1 + CNCc1ccccc1-c1csc(C(C)Nc2nc(C)nc3cc(OC)c(OC)cc23)c1 | HUVEC/MSC spheroids viability | 100% |
| Cn1ncnc1[C@H]1c2n[nH]c(=O)c3cc(F)cc(c23)N[C@@H]1c1ccc(F)cc1 + CC1OCC2(CCN(c3cnc(Sc4ccnc(N)c4Cl)c(N)n3)CC2)C1N | HUVEC/MSC spheroids viability | 105% |
| CC(C)n1nc(-c2ccc3oc(N)nc3c2)c2c(N)ncnc21 + COc1cc2nc(C)nc(NC(C)c3cc(N)cc(C(F)(F)F)c3)c2cc1OC1CCOC1 | HUVEC/MSC spheroids viability | 78.9% |
| CN(C)C/C=C/C(=O)Nc1cc2c(Nc3ccc(F)c(Cl)c3)ncnc2cc1O[C@H]1CCOC1 + CC1OCC2(CCN(c3cnc(Sc4ccnc(N)c4Cl)c(N)n3)CC2)C1N | HUVEC/MSC spheroids viability | 110% |
| Cn1ncnc1[C@H]1c2n[nH]c(=O)c3cc(F)cc(c23)N[C@@H]1c1ccc(F)cc1 + COc1cc2nc(C)nc(NC(C)c3cc(N)cc(C(F)(F)F)c3)c2cc1OC1CCOC1 | HUVEC/MSC spheroids viability | 107% |
| CN(C)C/C=C/C(=O)Nc1cc2c(Nc3ccc(F)c(Cl)c3)ncnc2cc1O[C@H]1CCOC1 + COc1cc2nc(C)nc(NC(C)c3cc(N)cc(C(F)(F)F)c3)c2cc1OC1CCOC1 | HUVEC/MSC spheroids viability | 98.6% |

* * *

- Tested on: HUVEC/MSC spheroids viability
- Assay Notes: Human HUVEC/MSC cell line growth inhibition [KRAS2];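 also: percent of DMSO vehicle control luminescence so 100% = untreated viability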
- Condition Description: second compound 0.03 µM; first compound 3.16 µM; stronger effect = lower value
Each entry below carries its reported viability, T/C.

| Compound | viability, T/C |
| --- | --- |
| COC(=O)c1ccc2c(C(=Nc3ccc(N(C)C(=O)CN4CCN(C)CC4)cc3)c3ccccc3)c(O)[nH]c2c1 + C=CC(=O)N1CCN(c2nc(OCC3CCCN3C)nc3c2CCN(c2cccc4cccc(C)c24)C3)CC1CC#N | 52.6% |
| COc1cc2nccc(Oc3ccc(NC(=O)C4(C(=O)Nc5ccc(F)cc5)CC4)cc3)c2cc1OC + C=CC(=O)N1CCN(c2nc(OCC3CCCN3C)nc3c2CCN(c2cccc4cccc(C)c24)C3)CC1CC#N | 77.8% |
| Cn1nccc1Nc1nccc(-c2cc3c(s2)C(C)(C)N(CCN2CCOCC2)C3=O)n1 + C=CC(=O)N1CCN(c2nc(OCC3CCCN3C)nc3c2CCN(c2cccc4cccc(C)c24)C3)CC1CC#N | 48.6% |

* * *

- Test system: HUVEC/MSC spheroids viability
- Assay Notes: Human HUVEC/MSC cell line growth inhibition [KRAS2];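 also: percent of DMSO vehicle control luminescence so 100% = untreated viability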
- Condition Description: second compound 1 µM; first compound 0.316 µM; stronger effect = lower value
Each entry below carries its reported viability, T/C.
Measure Name: viability, T/C (%)

| Compound | Experimental Target | Observed Value |
| --- | --- | --- |
| COc1cc(Nc2ncc3c(n2)-c2ccc(Cl)cc2C(c2c(F)cccc2OC)=NC3)ccc1C(=O)O + CNCc1ccccc1-c1csc(C(C)Nc2nc(C)nc3cc(OC)c(OC)cc23)c1 | HUVEC/MSC spheroids viability | 97.3 |
| COc1cc(Nc2ncc3c(n2)-c2ccc(Cl)cc2C(c2c(F)cccc2OC)=NC3)ccc1C(=O)O + C=CC(=O)N1CCN(c2nc(=O)n(-c3c(C)ccnc3C(C)C)c3nc(-c4c(O)cccc4F)c(F)cc23)C(C)C1 | HUVEC/MSC spheroids viability | 115 |
| CC1OCC2(CCN(c3cnc(Sc4ccnc(N)c4Cl)c(N)n3)CC2)C1N (stereo not given) + C=CC(=O)N1CCN(c2nc(=O)n(-c3c(C)ccnc3C(C)C)c3nc(-c4c(O)cccc4F)c(F)cc23)C(C)C1 | HUVEC/MSC spheroids viability | 105 |
| O=C(c1cc(Cc2n[nH]c(=O)c3ccccc23)ccc1F)N1CCN(C(=O)C2CC2)CC1 + CNCc1ccccc1-c1csc(C(C)Nc2nc(C)nc3cc(OC)c(OC)cc23)c1 | HUVEC/MSC spheroids viability | 85.5 |
| CC(C)NCC(C(=O)N1CCN(c2ncnc3c2C(C)CC3O)CC1)c1ccc(Cl)cc1 (stereo not given) + CNCc1ccccc1-c1csc(C(C)Nc2nc(C)nc3cc(OC)c(OC)cc23)c1 | HUVEC/MSC spheroids viability | 103 |

* * *

- Test system: HUVEC/MSC spheroids viability
- Assay Notes: Human HUVEC/MSC cell line growth inhibition [KRAS2];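 also: percent of DMSO vehicle control luminescence so 100% = untreated viability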
- Condition Description: second compound 1 µM; first compound 1 µM; stronger effect = lower value
Each entry below carries its reported viability, T/C.

| Compound | Scale Unit | viability, T/C |
| --- | --- | --- |
| COC(=O)c1ccc2c(C(=Nc3ccc(N(C)C(=O)CN4CCN(C)CC4)cc3)c3ccccc3)c(O)[nH]c2c1 + CNCc1ccccc1-c1csc(C(C)Nc2nc(C)nc3cc(OC)c(OC)cc23)c1 | % | 57.5 |
| CCN1CCN(Cc2ccc(Nc3ncc(F)c(-c4cc(F)c5nc(C)n(C(C)C)c5c4)n3)nc2)CC1 + CNCc1ccccc1-c1csc(C(C)Nc2nc(C)nc3cc(OC)c(OC)cc23)c1 | % | 119 |
| CCNC(=O)CC1N=C(c2ccc(Cl)cc2)c2cc(OC)ccc2-n2c(C)nnc21 (stereo not given) + COc1cc2nc(C)nc(NC(C)c3cc(N)cc(C(F)(F)F)c3)c2cc1OC1CCOC1 | % | 105 |
| CCN1CCN(Cc2ccc(Nc3ncc(F)c(-c4cc(F)c5nc(C)n(C(C)C)c5c4)n3)nc2)CC1 + CC1OCC2(CCN(c3cnc(Sc4ccnc(N)c4Cl)c(N)n3)CC2)C1N | % | 114 |
| CC1OCC2(CCN(c3cnc(Sc4ccnc(N)c4Cl)c(N)n3)CC2)C1N (stereo not given) + C=CC(=O)N1CCN(c2nc(=O)n(-c3c(C)ccnc3C(C)C)c3nc(-c4c(O)cccc4F)c(F)cc23)C(C)C1 | % | 99.7 |

* * *

- Tested on: HUVEC/MSC spheroids viability
- Assay Notes: Human HUVEC/MSC cell line growth inhibition [KRAS2];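 also: percent of DMSO vehicle control luminescence so 100% = untreated viability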
- Condition Description: second compound 1 µM; first compound 0.316 µM; stronger effect = lower value

| Molecule | Scale Unit | viability, T/C |
| --- | --- | --- |
| CC1(C)CCC(CN2CCN(c3ccc(C(=O)NS(=O)(=O)c4ccc(NCC5CCOCC5)c([N+](=O)[O-])c4)c(Oc4cnc5[nH]ccc5c4)c3)CC2)=C(c2ccc(Cl)cc2)C1 + COc1cc2nc(C)nc(NC(C)c3cc(N)cc(C(F)(F)F)c3)c2cc1OC1CCOC1 | % | 84 |
| CC(C)NCC(C(=O)N1CCN(c2ncnc3c2C(C)CC3O)CC1)c1ccc(Cl)cc1 (stereo not drawn) + COc1cc2nc(C)nc(NC(C)c3cc(N)cc(C(F)(F)F)c3)c2cc1OC1CCOC1 | % | 88.5 |
| Cn1nccc1Nc1nccc(-c2cc3c(s2)C(C)(C)N(CCN2CCOCC2)C3=O)n1 + COc1cc2nc(C)nc(NC(C)c3cc(N)cc(C(F)(F)F)c3)c2cc1OC1CCOC1 | % | 113 |
